- Test system: SF-268 CNS
- method: NCI tumour cell line growth inhibition, 48 h
Here, each record is paired with measured TGI data.
testReadout: TGI

{"columns": ["molecule", "result"],
 "data": [
  ["CC(C)(C)c1ccc(O)c(C(O)c2ccncc2)c1 (stereo unspecified)", "> 100 µM"],
  ["CCn1c2ccccc2c2cc(NC(=O)Nc3ccc([N+](=O)[O-])cc3C)ccc21", "> 100 µM"],
  ["Nc1c(C(=O)Nc2ccncc2)sc2nc3c(cc12)CCCCCCCC3", "1.74 µM"],
  ["CN1C2CCC1CC(=CCOC(c1ccc(F)cc1)c1ccc(F)cc1)C2", "27 µM"],
  ["CCOC(=O)c1nnc2c(C(=O)OCC)c3ccccc3n2c1N", "> 100 µM"],
  ["O=C(c1ccccc1)c1cc2ccccc2o1", "> 100 µM"]
]}

###

- System: SW-620 colon
- method: NCI tumour cell line growth inhibition, 48 h
testReadout: TGI

{"columns": ["compoundStructure", "tgt", "result"],
 "data": [
  ["O=C1C(c2c(O)[nH]c3ccc(F)cc23)=Nc2ccccc21", "SW-620 colon", "> 100 µM"],
  ["CCOC(=O)C(=[N+]=[N-])[Si](C)(C)C", "SW-620 colon", "> 100 µM"],
  ["CN(CC(=O)O)c1ncc2c(n1)CCCC2", "SW-620 colon", "> 100 µM"],
  ["Cc1ccc(NC(=O)CCc2cc(C(C)(C)C)nc(=S)[nH]2)cc1C", "SW-620 colon", "> 100 µM"],
  ["CC[C@H]1[C@@H]2C=C[C@@H]3[C@H]4C/C=C\\C(=O)NCCC[C@@H]5NC(=O)/C(=C(O)/C=C/[C@@H]4C[C@@H]3[C@H]2C[C@H]1C)C5=O", "SW-620 colon", "7.59 µM"]
]}

###

Below, each entry is listed with its recorded TGI.
- Test system: HOP-18 NSCLC
- method: NCI tumour cell line growth inhibition, 48 h

{"columns": ["molecule", "TGI"],
 "data": [
  ["COC1(OC)C(N(C)C)=C(Cl)C(=O)/C1=C/C=O", "> 100 µM"],
  ["O=C1/C(=C/c2ccc(Cl)cc2)CCC1CCN1CCOCC1 (stereo unspecified)", "> 100 µM"],
  ["O=c1ccn([C@H]2CSC[C@@H](CO)C2)c(=O)[nH]1", "> 100 µM"],
  ["CC(=O)Oc1c2c(c(O)c3ccccc13)C(n1cnc3c(ncn3C3OC(CO)C4OC(C)(C)OC43)c1=N)CCC2 (stereo unspecified)", "34.6 µM"],
  ["CC1CN(C(=O)CN2CCC(CCCCN(C)C)CC2)c2ccccc2NC1=O (stereo unspecified)", "> 100 µM"],
  ["CC12CP(=O)(c3ccccc3)CC1C2(Cl)Cl (stereo unspecified)", "> 100 µM"]
]}

###

Overview of reported TGI across a group of molecules:
- Tested on: MALME-3M melanoma
- method: NCI tumour cell line growth inhibition, 48 h

{"columns": ["molecule", "prefixOperator", "TGI [µM]"],
 "data": [
  ["NC(=O)C12CC3CC(CC(F)(C3)C1)C2", ">", 100],
  ["COc1ccc2cc(/C=N/NC(=O)Nc3ccccc3)ccc2c1", ">", 100],
  ["CC(C)(C)OC(=O)[C@H]1CCC(=S)N1Cc1ccccc1", ">", 100],
  ["CCn1c2ccccc2c2cc(NC(=O)Nc3ccc([N+](=O)[O-])cc3C)ccc21", "=", 13],
  ["COc1cc(F)ccc1-c1ncnc(Nc2cccc(CS(C)(=N)=O)c2)n1 (centres undefined)", "=", 9.66],
  ["COc1cccc2c1C(=O)c1c(O)c3c(c(O)c1C2=O)C[C@](O)(C(=O)CO)C[C@H]3O[C@@H]1C[C@@H](NC(=O)CCCCCN(C)C2(c3ccc(F)cc3)CC3CCC2C3)[C@H](O)[C@@H](C)O1 (some centres undefined)", "=", 16.9],
  ["Cc1ncc(C(=O)Nc2ccc(CN3CCN(C)CC3)c(C(F)(F)F)c2)cc1C#Cc1cnc(N)c2ccncc12", "=", 1.59],
  ["CC(=O)Oc1c2c(c(O)c3ccccc13)C(n1cnc3c(ncn3C3OC(CO)C4OC(C)(C)OC43)c1=N)CCC2 (centres undefined)", "=", 23.4],
  ["Cn1cc(NC(=O)Nc2cc(C(=O)Nc3cc(C(=O)Nc4ccc(S(=O)(=O)O)c5cc(S(=O)(=O)O)ccc45)n(C)c3)n(C)c2)cc1C(=O)Nc1cc(C(=O)Nc2ccc(S(=O)(=O)O)c3cc(S(=O)(=O)O)ccc23)n(C)c1", ">", 100]
]}
